Experiment: in vivo
Settings: male, Han Wistar, rat, iv, 120 mg/kg
QUANTITY MEASURED: C0

Can you look up the measured C0 of NC(=O)c1cccnc1 [NA, Nicotinamide, reference compound] for me?
178 µg/mL

----------
Assay: in vivo
Conditions: male, Han Wistar, rat, iv, 120 mg/kg, t½
QUANTITY MEASURED: half-life (h)
Give the value in h but do not write h after it.

# query: half-life of entry NC(=O)c1cccnc1 [NA, Nicotinamide, reference compound]
4

----------
Test: in vivo
Details: male, Han Wistar, rat, iv, 120 mg/kg
QUANTITY MEASURED: clearance (mL/min/kg)
Answer with a number only, understood to be in mL/min/kg.

# get_value(readout='clearance', item= NC(=O)c1cccnc1 [NA, Nicotinamide, reference compound] )
2.72

----------
Test: in vivo
Conditions: male, Han Wistar, rat, iv, 120 mg/kg
QUANTITY MEASURED: AUC(0-t) (µg·h/mL)
Numeric answer only, unit µg·h/mL assumed.

Which AUC(0-t) value belongs to NC(=O)c1cccnc1 [NA, Nicotinamide, reference compound] ?
573

----------
Assay: in vivo
Conditions: male, Han Wistar, rat, iv, 120 mg/kg
QUANTITY MEASURED: Cmax (µg/mL)
Write the answer as a number in µg/mL, unit excluded.

Give its Cmax value. Item: NC(=O)c1cccnc1 [NA, Nicotinamide, reference compound]
168

----------
Test: in vivo
Settings: male, Han Wistar, rat, iv, 120 mg/kg
QUANTITY MEASURED: AUC(0-inf) (µg·h/mL)
Express your answer in µg·h/mL, writing the number without its unit.

Using the record for NC(=O)c1cccnc1 [NA, Nicotinamide, reference compound] , report its AUC(0-inf).
774

These data points were gathered from paper PMC6556870.
